Could you please report measured inhibition at 1 mg/kg for the items listed next?
# Measured on: h-NK1 receptors (Homo sapiens, UniProt P25103)
# Construct: expressed in transfected cells; host or cells: CHO cells (permanent expression), crude cell membranes
# Sequence (P25103 whole entry): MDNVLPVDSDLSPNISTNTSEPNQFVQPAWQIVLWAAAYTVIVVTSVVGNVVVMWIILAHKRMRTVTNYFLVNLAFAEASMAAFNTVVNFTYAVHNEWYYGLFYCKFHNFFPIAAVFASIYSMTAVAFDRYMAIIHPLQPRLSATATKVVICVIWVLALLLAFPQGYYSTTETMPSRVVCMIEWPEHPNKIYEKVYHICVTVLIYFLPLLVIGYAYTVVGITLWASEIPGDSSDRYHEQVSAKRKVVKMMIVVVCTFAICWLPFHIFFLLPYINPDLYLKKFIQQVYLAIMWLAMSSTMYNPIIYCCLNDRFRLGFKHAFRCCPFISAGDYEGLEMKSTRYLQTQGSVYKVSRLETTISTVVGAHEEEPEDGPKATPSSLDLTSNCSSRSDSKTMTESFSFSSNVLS
# Test summary: Evaluation of NK1 antagonist transport efficiency to the central nervous system using a h-NK1 receptor binding assay (brain extract after i.v. dosing of rats)
# Condition parameters: 5 min; compound extracted from brain of male SD rats 5 min after i.v. injection at the dose of 1 mg/kg; CHO cell membranes expressing h-NK1; read-out: inhibition rate of 125I-BH-Substance P binding to h-NK1 receptors
Counter-ions that a name gives are not always drawn.

Query block: Request the reported inhibition at 1 mg/kg associated with Cc1ccc(C[C@@H]2CN(CCCc3cn(C)cn3)CCN2C(=O)c2cc(C(F)(F)F)cc(C(F)(F)F)c2)cc1C.Cl.Cl [Example 18, dihydrochloride]
Result block: > 80%

Query block: Request the reported inhibition at 1 mg/kg associated with Cc1ccc(C[C@@H]2CN(CC#CCN3CCOCC3(C)C)CCN2C(=O)c2cc(N(C)C)cc(C(F)(F)F)c2)cc1C [90-(5), dihydrochloride]
Result block: > 80%

Query block: Request the reported inhibition at 1 mg/kg associated with CNc1cc(C(=O)N2CCN(CC#CCN3CCOCC3(C)C)C[C@H]2Cc2ccc(C)c(C)c2)cc(C(F)(F)F)c1.Cl.Cl [90-(4), dihydrochloride]
Result block: > 80%

###

Could you please report measured melting point for the items listed next?

Query block: Request the reported melting point associated with Cc1ccc(C[C@@H]2CN(C/C=C/CN3CCOCC3)CCN2C(=O)c2cc(Cl)cc(Cl)c2)cc1C.Cl.Cl [16-(2)]
Result block: > 230 °C

Query block: Request the reported melting point associated with Cc1ccc(C[C@@H]2CN(CCN3CCOC[C@@H]3CO)CCN2C(=O)c2cc(C(F)(F)F)cc(C(F)(F)F)c2)cc1C.Cl.Cl [80-(2)]
Result block: 150 to 160 °C

Query block: Request the reported melting point associated with Cl.Cl.O=C(c1cc(C(F)(F)F)cc(C(F)(F)F)c1)N1CCN(CCCc2ccccn2)C[C@H]1Cc1c[nH]c2ccccc12 [4-(2)]
Result block: 80 to 100 °C

Query block: Request the reported melting point associated with Cc1ccc(C[C@@H]2CN(CC#CCN3CCOCC3)CCN2C(=O)c2cc(Cl)cc(Cl)c2)cc1C.Cl.Cl [Example 15]
Result block: 175 °C (dec.)

Query block: Request the reported melting point associated with Cc1ccc(C[C@@H]2CN(CCCN3CCOCC3(C)C)CCN2C(=O)c2cc(C(F)(F)F)cc(C(F)(F)F)c2)cc1C.Cl.Cl [78-(4)]
Result block: 197 °C

Query block: Request the reported melting point associated with "Cl.Cl.O=C(c1cc(C(F)(F)F)cc(C(F)(F)F)c1)N1CCN(CCCCc2cccnc2)C[C@H]1Cc1c[nH]c2ccccc12"
Result block: 140 to 145 °C

Query block: Request the reported melting point associated with COCC1(C)COCCN1CC#CCN1CCN(C(=O)c2cc(C(F)(F)F)cc(C(F)(F)F)c2)[C@H](Cc2ccc(C)c(C)c2)C1.Cl.Cl (some centres unmarked) [71-(1)]
Result block: 155 to 160 °C

Query block: Request the reported melting point associated with "CNc1cc(C(=O)N2CCN(CC#CCN3CCOCC3(C)C)C[C@H]2Cc2c[nH]c3ccccc23)cc(C(F)(F)F)c1.Cl.Cl"
Result block: 215 to 230 °C

Query block: Request the reported melting point associated with Cc1ccc(C[C@@H]2CN(CCCc3cn(C)cn3)CCN2C(=O)c2cc(C(F)(F)F)cc(C(F)(F)F)c2)cc1C.Cl.Cl [Example 18]
Result block: 91 °C (dec.)

Query block: Request the reported melting point associated with Cc1ccc(C[C@@H]2CN(Cc3cnn(CC(=O)O)c3)CCN2C(=O)c2cc(C(F)(F)F)cc(C(F)(F)F)c2)cc1C [Example 47]
Result block: 223 to 230 °C

Query block: Request the reported melting point associated with CC1(C)COCCN1CC#CCN1CCN(C(=O)c2cc([N+](=O)[O-])cc(C(F)(F)F)c2)[C@H](Cc2c[nH]c3ccccc23)C1.Cl.Cl [90-(3)]
Result block: 198 to 220 °C

Query block: Request the reported melting point associated with "COc1ccc(C#CCN2CCN(C(=O)c3cc(C(F)(F)F)cc(C(F)(F)F)c3)[C@H](Cc3ccc(C)c(C)c3)C2)cn1.Cl.Cl"
Result block: 160 to 170 °C

Query block: Request the reported melting point associated with COCC1(C)COCCN1CCN1CCN(C(=O)c2cc(C(F)(F)F)cc(C(F)(F)F)c2)[C@H](Cc2ccc(C)c(C)c2)C1.Cl.Cl (some centres unmarked) [81-(2)]
Result block: 60 to 70 °C

Query block: Request the reported melting point associated with COC[C@H]1CN(CC#CCN2CCN(C(=O)c3cc(C(F)(F)F)cc(C(F)(F)F)c3)[C@H](Cc3ccc(C)c(C)c3)C2)CCO1.Cl.Cl [71-(6)]
Result block: 80 to 90 °C

Data provenance is patent US6924278B2.
